- experimental.system: UniProt:Q8ILY1
- measurement.protocol: Fluorescence-based high-throughput DNA polymerase assay (molecular beacon), primary screen and dose-response
- Type: biochemical
- applied.conditions: DRC-1; concentration 10; 10'
Kindly supply the reported % inhibition Apo pol 10' values for the records listed here.
Give bare numbers, in %.

CCCCCc1c2c(cc(O)c1C(=O)O)OC(=O)c1c(cc(OC)cc1C(=O)CCCC)O2	51.0452
Cc1ccnc(NS(=O)(=O)c2ccc(-n3cccc3)cc2)n1	43.5691
Cc1ccc(C2=N/C(=C\c3ccc(I)o3)C(=O)O2)cc1[N+](=O)[O-]	45.023
O=[N+]([O-])c1ccc(SCc2ccco2)c2cccnc12	55.3292
CCCN1COc2ccc3c(=O)c(-c4ccccc4)coc3c2C1	12.2491
O=C(Nc1c2c(nn1-c1ccccc1)CSC2)c1ccco1	66.5971

Hello, I would appreciate it if you could give % inhibition Apo pol 10' for each entry below.
1. COc1ccc(NC(=O)Cn2nc3c(cc2=O)CCC3)cc1Cl
2. COc1cc(/C=C2\C(=O)N(c3ccc(C(=O)O)cc3)N=C2C(F)(F)F)ccc1OCC(C)C

1: 88; 2: 46.067

Name the reported % inhibition Apo pol 10' value associated with the compound `O=C(Cc1cccs1)N1CCN(c2nc(CN3CCOCC3)cs2)CC1`
46

----------
- experimental.system: P. falciparum apicoplast DNA polymerase (Pf-apPOL) (Plasmodium falciparum, UniProt Q8ILY1)
- Sequence (Q8ILY1 entry or part of it): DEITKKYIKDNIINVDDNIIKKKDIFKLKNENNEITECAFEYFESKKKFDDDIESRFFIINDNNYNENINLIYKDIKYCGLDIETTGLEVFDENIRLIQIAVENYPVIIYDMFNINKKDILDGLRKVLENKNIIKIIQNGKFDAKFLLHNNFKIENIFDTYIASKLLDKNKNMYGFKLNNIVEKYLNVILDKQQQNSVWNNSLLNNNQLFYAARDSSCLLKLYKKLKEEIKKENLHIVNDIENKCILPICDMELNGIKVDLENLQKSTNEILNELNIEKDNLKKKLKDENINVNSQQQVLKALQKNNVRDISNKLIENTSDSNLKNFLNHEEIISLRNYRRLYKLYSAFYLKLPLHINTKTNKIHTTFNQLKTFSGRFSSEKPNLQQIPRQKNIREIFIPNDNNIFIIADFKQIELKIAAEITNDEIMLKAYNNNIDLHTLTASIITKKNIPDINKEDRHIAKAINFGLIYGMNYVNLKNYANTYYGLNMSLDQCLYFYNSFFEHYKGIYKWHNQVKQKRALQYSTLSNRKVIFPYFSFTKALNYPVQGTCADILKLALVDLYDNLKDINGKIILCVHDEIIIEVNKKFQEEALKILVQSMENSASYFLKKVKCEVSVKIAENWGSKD
- measurement.protocol: Fluorescence-based high-throughput DNA polymerase assay (molecular beacon), primary screen and dose-response
- Type: biochemical
- applied.conditions: DRC-1; 10'; concentration 2.5
readout.label: % inhibition Apo pol 10' (%)
Numbers only, in %.

Use these answered entries as a reference point.
O=C(O)c1c(F)c(F)c(-c2c(F)c(F)c(C(=O)O)c(F)c2F)c(F)c1F	9.435
O=C1N=C(Nc2cccc(Cl)c2Cl)S/C1=C\c1ccco1 [Molecule 3, O=C1N=C(S/C/1=C\c1ccco1)Nc1cccc(c1Cl)Cl]	26.4621
O=C(Nc1ccc2c(c1)Cc1cc(NC(=O)c3ccco3)ccc1-2)c1ccco1	-0.5837
O=C(CSc1nnc(-c2ccco2)[nH]1)c1ccc(Cl)cc1	25.2453
O=C(CSc1nnc(-c2ccncc2)[nH]1)c1ccc(O)c(O)c1	60.0938
CCOc1ccccc1-c1nc(-c2ccc(=O)[nH]c2)no1 [Molecule 76, CCOc1ccccc1c1onc(n1)c1ccc(=O)[nH]c1]	0.6967

Hello, I would appreciate it if you could give % inhibition Apo pol 10' for each entry below.
1. COc1cc(Cl)c(C)cc1NC(=O)Cn1ccc2c(=O)[nH]ccc21
2. O=C(Nc1nnc(-c2ccno2)o1)c1ccc2c(c1)OCO2
3. CC(NC(=O)Cc1cc(=O)[nH]c(SCc2cccc(Cl)c2)n1)c1ccccc1 (stereo not shown)
4. Cc1ccc(NC(=O)Cn2ccc3c(=O)[nH]ccc32)cc1F [Molecule 48, O=C(Cn1ccc2c1cc[nH]c2=O)Nc1ccc(c(c1)F)C]
5. O=[N+]([O-])c1cc2c(cc1CN1CCCCCC1)OCO2

1.493
0.3504
-1.6671
0.4313
6.817

Hello, I would appreciate it if you could give % inhibition Apo pol 10' for each entry below.
1. O=C(Cn1ccc2c(=O)[nH]ccc21)Nc1ccc(Cl)cc1 [Molecule 36, O=C(Cn1ccc2c1cc[nH]c2=O)Nc1ccc(cc1)Cl]
2. CC1(C)CC(=O)C2=C(C1)OC1=C(C(=O)CC(C)(C)C1)C2c1ccc(O)cc1
3. Cc1ccc(-n2nnc(C(=O)O)c2-c2ccccn2)c(F)c1

6.801
1.4755
7.865

Hello, I would appreciate it if you could give % inhibition Apo pol 10' for each entry below.
1. O=[N+]([O-])c1cc2c(cc1CN1CCN(c3cccc(Cl)c3)CC1)OCO2
2. O=C(Nc1nnc(-c2cccs2)o1)c1ccc([N+](=O)[O-])o1

1. 13.4536
2. 6.774

----------
- experimental.system: P. falciparum apicoplast DNA polymerase (Pf-apPOL) (Plasmodium falciparum)
- measurement.protocol: Fluorescence-based high-throughput DNA polymerase assay (molecular beacon), primary screen and dose-response
- Format: biochemical
- applied.conditions: DRC-2; 180'; concentration 40
Kindly supply the reported % inhibition apPOL 180' values for the records listed here.
Give bare numbers, in %.

CC(=O)OCC1=C(C(=O)[O-])N2C(=O)[C@@H](NC(=O)Cc3cccs3)[C@H]2SC1.[Na+]	29

Hello, I would appreciate it if you could give % inhibition apPOL 180' for each entry below.
1. O=C(Cn1ccc2c(=O)[nH]ccc21)Nc1cccc(Cl)c1 [Molecule 23, O=C(Cn1ccc2c1cc[nH]c2=O)Nc1cccc(c1)Cl]
2. O=c1[nH]c2ccc([N+](=O)[O-])cc2c(-c2ccccc2)c1Sc1nc2ccccc2o1
3. O=C1NN(c2ccc(Cl)c(Cl)c2)C(=O)/C1=C/c1ccc(-c2ccc3c(c2)C(=O)OC3)o1
4. CCOC(=O)C1=C2c3cc(OC)c(OC)cc3CC(C)(C)N2C(=O)C1=O

1. 72
2. 57
3. 63
4. 68

Hello, I would appreciate it if you could give % inhibition apPOL 180' for each entry below.
1. COc1ccc(-c2occ(C(=O)O)c2C(=O)O)cc1
2. N#CC(=NNc1cc(C(F)(F)F)cc(C(F)(F)F)c1)C(=O)c1ccco1
3. O=c1cc(-c2ccccc2Cl)oc2c(NS(=O)(=O)c3cc(Cl)cc(Cl)c3O)ccc(O)c12

77
67
72

----------
Kindly supply the reported % inhibition apPOL 180' values for the records listed here.
- experimental.system: P. falciparum apicoplast DNA polymerase (Pf-apPOL) (Plasmodium falciparum)
- measurement.protocol: Fluorescence-based high-throughput DNA polymerase assay (molecular beacon), primary screen and dose-response
- Assay type: biochemical
- applied.conditions: DRC-1; concentration 80; 180'
Numbers only, in %.

Use these answered entries as a reference point.
O=C(O)c1nc(-c2ccccc2)nc2c1OCO2	90.3482
O=[N+]([O-])c1ccc(SCc2ccco2)c2cccnc12	89.7624

Hello, I would appreciate it if you could give % inhibition apPOL 180' for each entry below.
1. COc1ccc(-c2occ(C(=O)O)c2C(=O)O)cc1
2. Cc1ccc(C2=N/C(=C\c3ccc(I)o3)C(=O)O2)cc1[N+](=O)[O-]
3. Cc1cc(C)nc(Nc2nc(CC(=O)Nc3nc(-c4ccco4)cs3)cs2)n1

[92.8082, 91.2118, 88.1815]

Hello, I would appreciate it if you could give % inhibition apPOL 180' for each entry below.
1. COc1cc(/C=C2\C(=O)N(c3ccc(C(=O)O)cc3)N=C2C(F)(F)F)ccc1OCC(C)C
2. CCc1ccccc1NC(=O)c1ccc(-c2ncccc2NC(C)=O)cc1

1: 92.8608; 2: 89.009

Name the reported % inhibition apPOL 180' value associated with the compound O=C(Cn1ccc2c(=O)[nH]ccc21)Nc1ccccc1Cl [Molecule 19, O=C(Cn1ccc2c1cc[nH]c2=O)Nc1ccccc1Cl]
89.6716

----------
- experimental.system: P. falciparum apicoplast DNA polymerase (Pf-apPOL) (Plasmodium falciparum, UniProt Q8ILY1)
- measurement.protocol: Fluorescence-based high-throughput DNA polymerase assay (molecular beacon), primary screen and dose-response;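 as to % inhibition Apol 40': compound concentration given in µM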
- Type: biochemical
- applied.conditions: DRC-2; concentration 5; 40'
- Excerpt: The HT assay employs a molecular beacon, a stem-loop DNA template with a Cy3 dye and the Black Hole Quencher on the 3′ and 5′ ends of the DNA, respectively. Pf-apPOL concentration is based on a calculated absorptivity of ε280 = 56750 M^−1 cm^−1. […] To identify apPOL inhibitors we utilised our previously developed high-throughput DNA polymerase assay. […] The assay accurately recapitulates the kinetic behaviour of apPOL, as measured through more conventional low-throughput gel-based assays. […]
readout.label: % inhibition Apol 40' (%)
Numbers only, in %.

COc1ccc(NC(=O)Cn2nc3c(cc2=O)CCC3)cc1Cl [Molecule 4, COc1ccc(cc1Cl)NC(=O)Cn1nc2CCCc2cc1=O]	55
Nc1ncnc(NC2CCCCC2)c1[N+](=O)[O-] [KU0193018]	3.32
CCCCCc1c2c(cc(O)c1C(=O)O)OC(=O)c1c(cc(OC)cc1C(=O)CCCC)O2 [Molecule 24]	20
O=C1c2ccccc2C(=O)c2c1oc1c3c(ccc21)OCN(C1CCCC1)C3 [KU0064306]	24

Query compound follows.
Name the reported % inhibition Apol 40' value associated with the compound CCc1ccccc1NC(=O)c1ccc(-c2ncccc2NC(C)=O)cc1 [KU0203112]
7

----------
- experimental.system: P. falciparum apicoplast DNA polymerase (Pf-apPOL) (Plasmodium falciparum, UniProt Q8ILY1)
- measurement.protocol: Fluorescence-based high-throughput DNA polymerase assay (molecular beacon), primary screen and dose-response;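 as to % inhibition apPOL 180': test concentration in µM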
- Format: biochemical
- applied.conditions: DRC-1; concentration 2.5; 180'
readout.label: % inhibition apPOL 180' (%)
Answers are plain numbers, in %.

Cc1ccc(C2=N/C(=C\c3ccc(I)o3)C(=O)O2)cc1[N+](=O)[O-] [KU0073890]	6.694
COc1ccc(C=C2Oc3c(ccc4c3CN(Cc3ccco3)CO4)C2=O)c(OC)c1 [KU0199404]	14.4773
O=C(Nc1c2c(nn1-c1ccccc1)CSC2)c1ccco1 [KU0055213]	-1.233

Hello, I would appreciate it if you could give % inhibition apPOL 180' for each entry below.
1. CCc1ccccc1NC(=O)c1ccc(-c2ncccc2NC(C)=O)cc1 [KU0203112]
2. COc1cc(/C=C2\C(=O)N(c3ccc(C(=O)O)cc3)N=C2C(F)(F)F)ccc1OCC(C)C [KU0069072]
3. O=C1c2ccccc2C(=O)c2c1oc1c3c(ccc21)OCN(C1CCCC1)C3 [KU0064306]
4. CCCN1COc2ccc3c(=O)c(-c4ccccc4)coc3c2C1 [KU0199556]

1. -4.969
2. 6.275
3. 9.893
4. 12.8227
